System: c-Src
Experiment: phosphorylation enrichment, bacterial display (enrichment ratio); higher = better substrate or ligand; peptides without Tyr show the background;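 also: 11-residue human phosphosite peptides and single-mutation variants displayed on the E. coli surface, counted by deep sequencing, each peptide's frequency after selection divided by its frequency in the unselected input library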;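 also: frequency after pTyr selection over input frequency; kinase dosed for 20-30% of maximal phosphorylation in three min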
REPORTED_ENDPOINT: phosphorylation enrichment

QPSPSYDSSGG [TCF12_Y70_R74G] ... 0.478
PGAPAYRVLME [MYO5A_Y1245] ... 0.423
LLTALYFISRG [KCNH2_Y780] ... 1.81
ENELTYFCCKK [CD59_Y86_YF] ... 2.21
QRVLLYVQRET [GRHL3_Y518_R520Q] ... 0.57
IVKAFYVHARA [AIPL1_Y268_R270H_YF] ... 0.41
EPVSDYINANV [PTPN11_Y304_I309V] ... 0.37

---

Molecular target: MERTK (UniProt Q12866)
Sequence (Q12866 whole entry, looked up): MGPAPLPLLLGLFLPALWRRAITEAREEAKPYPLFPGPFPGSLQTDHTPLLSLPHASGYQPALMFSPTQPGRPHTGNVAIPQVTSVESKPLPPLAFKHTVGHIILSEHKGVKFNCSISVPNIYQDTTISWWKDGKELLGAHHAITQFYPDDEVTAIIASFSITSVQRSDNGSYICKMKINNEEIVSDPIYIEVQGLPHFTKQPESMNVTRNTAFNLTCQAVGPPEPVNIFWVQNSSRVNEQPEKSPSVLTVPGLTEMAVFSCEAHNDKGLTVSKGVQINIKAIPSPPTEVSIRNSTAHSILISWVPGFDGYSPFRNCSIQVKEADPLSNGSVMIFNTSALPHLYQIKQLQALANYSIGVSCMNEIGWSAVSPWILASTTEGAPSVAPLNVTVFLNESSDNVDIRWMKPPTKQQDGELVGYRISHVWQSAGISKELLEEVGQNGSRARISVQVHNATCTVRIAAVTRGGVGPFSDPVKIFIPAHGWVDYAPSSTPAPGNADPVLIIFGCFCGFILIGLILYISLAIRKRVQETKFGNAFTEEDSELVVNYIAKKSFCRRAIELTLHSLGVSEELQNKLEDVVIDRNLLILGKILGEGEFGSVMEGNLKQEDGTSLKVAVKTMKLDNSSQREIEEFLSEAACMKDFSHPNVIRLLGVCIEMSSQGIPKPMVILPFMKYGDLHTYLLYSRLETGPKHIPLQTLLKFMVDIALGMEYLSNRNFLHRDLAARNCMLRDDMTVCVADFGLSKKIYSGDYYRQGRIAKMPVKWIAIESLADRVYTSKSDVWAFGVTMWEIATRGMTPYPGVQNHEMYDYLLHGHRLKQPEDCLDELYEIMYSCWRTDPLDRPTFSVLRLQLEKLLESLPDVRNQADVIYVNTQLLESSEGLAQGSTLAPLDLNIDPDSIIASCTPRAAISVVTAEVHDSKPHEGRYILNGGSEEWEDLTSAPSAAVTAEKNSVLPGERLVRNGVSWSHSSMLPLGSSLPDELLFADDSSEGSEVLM
Assay: phosphorylation enrichment, bacterial display (enrichment ratio); higher = better substrate or ligand; peptides without Tyr show the background
REPORTED_ENDPOINT: phosphorylation enrichment

RLNWIYYKDQT [RS1_Y165] ... 0.672
NDTAGYFIIGG [SEL1L3_Y399] ... 0.834
FRNSLYAPDYS [FAM92A_Y226] ... 4.83
AELVRYYMEHH [PTPN11_Y80_Q79R] ... 0.639
EFNLMYDGAKE [IRF6_Y97_T100A] ... 0.517
FKEQGYHRLPP [RIN1_Y681_YF] ... 0.377
RVLHNYLVWCV [ECEL1_Y400_R404C] ... 0.631
IPTPAYQSLPA [PDCD6IP_Y727_S730L] ... 0.898
GTFVIYVRFGG [FLNB_Y1687_YF] ... 0.379
TVSTRYTQPQP [SARG_Y259] ... 0.394
CTTVHYNFMCN [TP53_Y234_I232V_YF] ... 0.384
VRTGIYHGGEP [PIK3CA_Y361] ... 0.431
GSSSSYGQHGS [HRNR_Y517] ... 0.309
IPGGIYDADLN [CST4_Y35] ... 0.787
IWDLKYTIENP [SND1_Y178_R174W] ... 0.426
NGVSFYINLCQ [IGF2R_Y2025_YF] ... 0.478
PVQAAYPKVVA [HBB_Y131_Q132P] ... 0.504
RAIGYYSATSK [FAM120A_Y328] ... 1.17
KIMVIYDGACQ [VWDE_Y1035_T1032M] ... 0.519
FSQETYYRVSN [ABCD1_Y180_Q178E] ... 3.78
GSRGKYSSGFC [ATM_Y332_R337C] ... 0.51
ARLEYYENEKK [IRS1_Y47] ... 0.571
DVLVEYQGEGR [GNS_Y416] ... 0.414
AIIEEYLHLSD [EIF4G1_Y1253_N1257S] ... 0.515
DGFTDYAEFAK [MCFD2_Y138_I136T_YF] ... 0.542
GVRLYYRVMES [RB1_Y454] ... 0.419
GLPINYTTRRI [LAMA2_Y2894] ... 0.599
IYETDYYRKGG [INSR_Y1189] ... 3.92
FGAHNHHPLPV [OAT_Y55_Y55H_YF] ... 0.496

---

// reported phosphorylation enrichment per item
Target: Fes (UniProt P07332)
Sequence (P07332 whole entry, looked up): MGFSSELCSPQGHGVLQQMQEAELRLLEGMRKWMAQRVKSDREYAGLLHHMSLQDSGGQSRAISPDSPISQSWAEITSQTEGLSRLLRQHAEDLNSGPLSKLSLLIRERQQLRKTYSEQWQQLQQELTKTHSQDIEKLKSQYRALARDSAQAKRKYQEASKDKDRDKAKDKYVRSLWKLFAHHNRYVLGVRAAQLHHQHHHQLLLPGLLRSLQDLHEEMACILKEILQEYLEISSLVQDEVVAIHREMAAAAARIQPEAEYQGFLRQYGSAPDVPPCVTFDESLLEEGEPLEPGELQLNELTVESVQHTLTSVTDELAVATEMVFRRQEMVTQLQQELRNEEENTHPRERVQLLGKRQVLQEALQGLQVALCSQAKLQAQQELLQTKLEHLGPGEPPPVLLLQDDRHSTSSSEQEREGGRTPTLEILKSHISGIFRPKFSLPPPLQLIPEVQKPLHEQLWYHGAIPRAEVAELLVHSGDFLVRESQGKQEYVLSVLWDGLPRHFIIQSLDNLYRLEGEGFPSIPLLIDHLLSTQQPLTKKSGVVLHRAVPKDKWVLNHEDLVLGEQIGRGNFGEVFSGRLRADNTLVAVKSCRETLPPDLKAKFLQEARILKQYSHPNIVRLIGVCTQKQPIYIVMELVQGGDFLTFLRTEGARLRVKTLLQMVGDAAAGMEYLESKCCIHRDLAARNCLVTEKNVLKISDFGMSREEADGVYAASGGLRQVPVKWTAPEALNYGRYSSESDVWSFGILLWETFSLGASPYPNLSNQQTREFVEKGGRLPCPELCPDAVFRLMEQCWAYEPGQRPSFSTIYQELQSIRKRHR
Test: phosphorylation enrichment, bacterial display (enrichment ratio); higher = better substrate or ligand; peptides without Tyr show the background
REPORTED_ENDPOINT: phosphorylation enrichment

TVHCDYLNISH [TAF1L_Y1385_P1389S] ... 1.04
KAIMTYVSSFF [ACTN4_Y260_YF] ... 0.821
FLTLHYDAKPQ [ANG_Y38_Q36L] ... 0.983
SVTCTYSPALH [TP53_Y126_N131H] ... 1.41
FFRKVYHLASV [RBL1_Y796_YF] ... 0.781
MASTSYDFCRV [BST2_Y6_YF] ... 0.919
WSRAMYPDLGP [STARD8_Y330] ... 0.779
KMTGRYEMFAR [UPB1_Y362_YF] ... 0.815
GGQSVYHVHLH [HINT1_Y109] ... 0.77
DDYDLYGGEKF [PTPN11_Y66_Y62D] ... 1.1
RWGQKHMTAVV [CYBA_Y72_Y72H] ... 1.39
TEAEPYYRSLR [NPHS1_Y1138] ... 0.824
PRIHSYRGHLW [VHL_Y112_R107P] ... 1.08
HNELYYEEAEH [VANGL1_Y345] ... 1.53
EDGRLYAVKCS [PKMYT1_Y136_R140C] ... 1.12
QYQEKYKQVEQ [HCN4_Y531] ... 1.12
NVVQEYERVII [NPHS2_Y131_K126N] ... 0.942
FMYKVYSDPQP [FGFR1_Y280_C277Y] ... 1.16
RHLREYQDLLN [DES_Y388] ... 1.19
EHEALYLEADL [CENPF_Y1920] ... 1.34
SVLVPYEPPEV [TP53_Y220_V217L] ... 1.33
CTTLHYNFMCN [TP53_Y234_I232L_YF] ... 0.78
ELTAKYLNYYQ [P3H4_Y181] ... 0.802
SFPSTYRFERG [INPPL1_Y661_P659S_YF] ... 0.652
RSRQIYDAFIM [GRK3_Y109_YF] ... 0.48
RPFSPYIIRGM [LRP5_Y1531_R1529S_YF] ... 0.991
IDPYTYTPFGS [CYP3A4_Y432_I431T] ... 0.914
EQYELHCEMGS [CBL_Y371_Y371H] ... 1.18
SHNKYYMLVAR [MFSD8_Y134] ... 0.939

---

Test system: Fer (mouse)
Experiment: phosphorylation enrichment, bacterial display (enrichment ratio); higher = better substrate or ligand; peptides without Tyr show the background
// reported phosphorylation enrichment per item
REPORTED_ENDPOINT: phosphorylation enrichment

CTTIHYNYICN [TP53_Y234_M237I] ... 0.654
GREEFYVHYVG [KAT8_Y90] ... 0.428
SSMIDYNPLEK [MYOC_Y479] ... 0.44
SLALFYRNVFH [RBL1_Y792_K794N_YF] ... 0.497
DTVRIYDDDFF [UBA1_Y560_E557V] ... 0.619
CNTIHYNYMCN [TP53_Y234_T230N] ... 0.554
PLGVLYKVKVY [PTS_Y128_V124L] ... 0.511
TDLAFYLVRKG [ASL_Y376_YF] ... 0.541
SGASGYSATST [CERT1_Y143] ... 0.448
RFLERYIYNRQ [HLA-DPB1_Y57_E62Q] ... 0.655
GGSDRYGSLRP [MYLK_Y846] ... 0.332
SGRRRYTIAAL [TTR_Y125_P122R] ... 0.6
PRIHSYRGHLW [VHL_Y112_R107P] ... 0.722
GIKAAYEAERG [LMNA_Y81_L85R] ... 0.365

---

Target: EPHB1 (UniProt P54762)
Sequence (P54762 whole entry, looked up): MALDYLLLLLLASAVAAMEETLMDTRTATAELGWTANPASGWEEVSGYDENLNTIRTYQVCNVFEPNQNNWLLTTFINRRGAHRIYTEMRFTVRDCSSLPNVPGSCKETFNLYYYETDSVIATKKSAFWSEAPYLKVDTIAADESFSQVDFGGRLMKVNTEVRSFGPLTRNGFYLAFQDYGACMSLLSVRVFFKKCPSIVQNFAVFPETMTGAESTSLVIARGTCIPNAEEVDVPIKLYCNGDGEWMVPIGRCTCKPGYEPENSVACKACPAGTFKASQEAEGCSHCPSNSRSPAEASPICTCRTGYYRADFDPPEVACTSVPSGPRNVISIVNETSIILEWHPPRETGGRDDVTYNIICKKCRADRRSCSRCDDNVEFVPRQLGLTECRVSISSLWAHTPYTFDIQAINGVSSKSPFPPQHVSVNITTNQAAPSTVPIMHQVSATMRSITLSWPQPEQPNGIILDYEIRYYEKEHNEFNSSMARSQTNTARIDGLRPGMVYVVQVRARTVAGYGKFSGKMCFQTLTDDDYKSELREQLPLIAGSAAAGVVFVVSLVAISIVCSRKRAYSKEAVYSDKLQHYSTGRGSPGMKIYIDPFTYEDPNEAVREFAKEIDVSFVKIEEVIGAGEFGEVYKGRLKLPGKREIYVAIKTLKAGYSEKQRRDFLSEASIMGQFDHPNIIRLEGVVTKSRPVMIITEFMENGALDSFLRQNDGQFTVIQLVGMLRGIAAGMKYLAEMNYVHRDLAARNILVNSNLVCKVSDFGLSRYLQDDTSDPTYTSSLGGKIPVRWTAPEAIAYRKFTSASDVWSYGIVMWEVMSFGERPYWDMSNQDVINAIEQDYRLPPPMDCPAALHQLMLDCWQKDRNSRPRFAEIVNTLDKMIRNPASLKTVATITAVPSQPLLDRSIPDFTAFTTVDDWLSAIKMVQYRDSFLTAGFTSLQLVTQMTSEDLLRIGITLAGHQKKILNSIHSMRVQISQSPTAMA
Assay: phosphorylation enrichment, bacterial display (enrichment ratio); higher = better substrate or ligand; peptides without Tyr show the background
REPORTED_ENDPOINT: phosphorylation enrichment

SIDLGYHKDLQ [NF1_Y1169_G1166D] ... 0.46
VQVAYYTMMMN [SPATA17_Y84] ... 2.52
RSSGGYEPRGC [FUS_Y239_R244C] ... 0.227
TVSTRYTQPQP [SARG_Y259] ... 0.386
DDYDLYGGEKF [PTPN11_Y66_Y62D] ... 0.915
NAGAFYALSTL [FLVCR2_Y325] ... 0.822
PPPPAYDDVAQ [TNK2_Y635] ... 0.579
FETNVYVDKNL [PTCHD3_Y688_K685T] ... 0.546
QFNMQYSSSAA [ERBB2IP_Y981_I979M_YF] ... 0.592
KGEDFYSVTCH [FHL1_Y149_C150S] ... 0.806
CERFSYYGMKA [SLC15A2_Y60] ... 0.843
PIYLYYLMDLS [ITGB2_Y131_D128Y] ... 7.52
QRIHDYFEHRF [HCN4_Y554_YF] ... 0.614
EDDIIYTQDFM [STK11_Y362_T367M] ... 0.697
TIQSMYGCDVG [HLA-B_Y123_L119I] ... 0.502
NYNPNYCFAGK [ALK_Y1096_D1091N] ... 3.98
HAVYIYDICHV [TWNK_Y508_V507I] ... 8.01
RKGGSYSQAAS [HLA-A_Y344_T345S] ... 0.498
NDTAGYFIIGG [SEL1L3_Y399] ... 0.547
RLNWIYYKDQT [RS1_Y165] ... 0.985
FRTPGYREVVI [TNS2_Y673_A670T_YF] ... 0.418
EDASEYFENFI [PARP4_Y214_F215Y_YF] ... 0.798
LYEDCYLLGTS [ASS1_Y87_R86C] ... 7.04
YRDALYKFIVD [PHEX_Y250_M253I] ... 1.97
FRRITYFNWRH [PDE6B_Y556_H557Y_YF] ... 0.626
EFLQKYKGFKI [SYNE1_Y6953_YF] ... 0.372
SLGKGYSDGGC [MC4R_Y35] ... 0.456
HFVDEYDRTIE [KRAS_Y32_P34R] ... 0.875
SVSNNYIQTLG [CTNND1_Y174] ... 0.491

Measured values drawn from the supplement of paper PMC10065799 for this set.
